pIC50: −log10 of the molar value.
pIC50 for Amine oxidase [flavin-containing] A (Rattus norvegicus) - collated from the literature.
metric-name: pIC50

>>> df
                                    compound  sign  observed
 0  CN(C)C(=O)Cc1cc(=O)oc2cc(OCc3cccc(Cl)c3)ccc12     <      4.00
 1   CNC(=O)c1ccc2c(c1)S(=O)(=O)c1ccccc1C2=O     =      7.30
 2    CCc1cc2c(C)c(C)c(=O)oc2cc1OCc1nnc(C)s1     <      5.00
 3  CCC(C)Oc1ccc2c(c1)Oc1ccccc1S2(=O)=O (racemic)     =      7.85
 4  Cc1c(C)c2ccc(OCc3csc(Cc4ccccc4)n3)cc2oc1=O     =      5.49
 5   Cc1c(C)c2ccc(OCc3cc(C4CCC4)no3)cc2oc1=O     <      5.00
 6     CCc1cc2c(C)c(C)c(=O)oc2cc1OCCc1ccccc1     <      5.00
 7      O=S1(=O)c2ccccc2Oc2cc(OC(CF)CF)ccc21     =      8.70
 8  COCC1CN(c2ccc3nc(C(C)(O)CCC#N)sc3c2)C(=O)O1 (stereo not shown)     =      8.17
 9     OCCn1nnc(-c2ccc(OCc3ccc(Cl)cc3)cc2)n1     =      4.22
10     O=C1NC(=O)C(=Cc2cccc(OCc3ccccc3)c2)S1     =      4.00
11    N#CCCCCCCn1nnc(-c2ccc(-c3ccccc3)cc2)n1     =      4.34
12   Cc1nnc(COc2cc3oc(=O)c(Cl)c(C)c3cc2Cl)s1     <      5.00
13  Cc1c(Cl)c(=O)oc2cc(OCc3csc(C4CC4)n3)c(Cl)cc12     <      5.00
14  C[C@@H](CO)Oc1ccc2c(c1)Oc1ccccc1S2(=O)=O     =      7.15
15  N#CCCCN1C(=O)SC(=Cc2cccc(OCc3ccccc3)c2)C1=O     <      2.30

----------
Reported IC50 against Amine oxidase [flavin-containing] A (Rattus norvegicus), gathered from multiple publications, appears below.
metric-name: IC50

>>> print(df.to_string())
                                    molecule                              assay_system   observed
 0     Cc1c(C)c2ccc(OCc3cc(C)n(C)n3)cc2oc1=O  Amine oxidase [flavin-containing] A (Rattus norvegicus)    > 10 µM
 1   C[C@H](NCc1ccc(OCc2ccc(F)cc2)cc1)C(N)=O  Amine oxidase [flavin-containing] A (Rattus norvegicus)      93 µM
 2  N#CCCCCN1C(=O)SC(=Cc2cccc(OCc3ccccc3)c2)C1=O  Amine oxidase [flavin-containing] A (Rattus norvegicus)  > 1000 µM
 3  COCC1CN(c2ccc3nc(C(O)CCC#N)sc3c2)C(=O)O1 (centres unmarked)  Amine oxidase [flavin-containing] A (Rattus norvegicus)  0.0067 µM
 4       CC(C)c1ccc(COc2ccc3ccc(=S)oc3c2)cc1  Amine oxidase [flavin-containing] A (Rattus norvegicus)    ≥ 10 µM
 5    Cc1c(C)c2ccc(OCc3nnc(C4CC4)s3)cc2oc1=O  Amine oxidase [flavin-containing] A (Rattus norvegicus)     ~10 µM
 6  CCc1cc2c(C)c(C)c(=O)oc2cc1OCc1cc(C(C)C)n(C)n1  Amine oxidase [flavin-containing] A (Rattus norvegicus)    > 10 µM
 7  Cc1c(C)c2ccc(OCc3cc(C4CCCC4)no3)cc2oc1=O  Amine oxidase [flavin-containing] A (Rattus norvegicus)    > 10 µM
 8    CCCc1nnc(COc2ccc3c(C)c(C)c(=S)oc3c2)s1  Amine oxidase [flavin-containing] A (Rattus norvegicus)    ≥ 10 µM
 9      Cc1nnc(COc2ccc3c(C)c(C)c(=S)oc3c2)o1  Amine oxidase [flavin-containing] A (Rattus norvegicus)    > 10 µM
10  C[C@H](NCc1ccc(OCc2cccc(Cl)c2)cc1)C(N)=O  Amine oxidase [flavin-containing] A (Rattus norvegicus)     114 µM
11    COCc1cc(COc2ccc3c(C)c(C)c(=O)oc3c2)on1  Amine oxidase [flavin-containing] A (Rattus norvegicus)     ~10 µM
12     Cc1nnc(COc2ccc3c(C)c(Cl)c(=O)oc3c2)s1  Amine oxidase [flavin-containing] A (Rattus norvegicus)    > 10 µM
13  NC(=O)[C@@H](CO)NCc1ccc(OCc2cccc(Cl)c2)cc1  Amine oxidase [flavin-containing] A (Rattus norvegicus)   > 100 µM
14      Cc1nnc(COc2ccc3c(C)c(C)c(=O)oc3c2)s1  Amine oxidase [flavin-containing] A (Rattus norvegicus)     3.6 µM
15  CC(C)Oc1cc2c(cc1F)S(=O)(=O)c1ccc(F)cc1O2  Amine oxidase [flavin-containing] A (Rattus norvegicus)   0.035 µM
16  Cc1c(C)c2ccc(OCC3COc4ccccc4O3)cc2oc1=O (centres unmarked)  Amine oxidase [flavin-containing] A (Rattus norvegicus)     ~10 µM
17  Cc1c(C)c2ccc(OCc3ccc(C(C)(C)C)s3)cc2oc1=O  Amine oxidase [flavin-containing] A (Rattus norvegicus)    > 10 µM
18    CN(C)C(=O)CC1=CCOc2cc(OCc3ccccc3)ccc21  Amine oxidase [flavin-containing] A (Rattus norvegicus)    15.3 µM
19        Cc1ccsc1COc1ccc2c(C)c(C)c(=O)oc2c1  Amine oxidase [flavin-containing] A (Rattus norvegicus)    0.23 µM
20  COCC1CN(c2ccc3nc(CCCC#N)sc3c2)C(=O)O1 (centres unmarked)  Amine oxidase [flavin-containing] A (Rattus norvegicus)   0.014 µM
21  Cc1c(C)c2ccc(OCc3coc(Cc4ccccc4)c3)cc2oc1=O  Amine oxidase [flavin-containing] A (Rattus norvegicus)    > 10 µM
22  Cc1c(C)c2ccc(OCc3cc(C(C)C)n(C)n3)cc2oc1=O  Amine oxidase [flavin-containing] A (Rattus norvegicus)    > 10 µM
23    N#CCCCc1nc2ccc(N3C[C@H](CO)OC3=O)cc2s1  Amine oxidase [flavin-containing] A (Rattus norvegicus)   0.021 µM
24  Cc1c(C)c2ccc(OCc3cc(C4CCCCC4)no3)cc2oc1=O  Amine oxidase [flavin-containing] A (Rattus norvegicus)    > 10 µM
25    Cc1c(C)c2ccc(OCc3csc(C(C)C)n3)cc2oc1=S  Amine oxidase [flavin-containing] A (Rattus norvegicus)    > 10 µM
26     CC(C)Oc1cc2c(cc1F)S(=O)(=O)c1ccccc1O2  Amine oxidase [flavin-containing] A (Rattus norvegicus)   0.012 µM
27  Cc1c(Cl)c(=O)oc2cc(OCc3cc(C(C)C)n(C)n3)ccc12  Amine oxidase [flavin-containing] A (Rattus norvegicus)    > 10 µM
28    CCCc1cc(COc2ccc3c(C)c(C)c(=O)oc3c2)on1  Amine oxidase [flavin-containing] A (Rattus norvegicus)     ~10 µM
